kinact overview
Target: CDK7/cyclinH/MAT1 trimeric complex (Homo sapiens (Human))
Sequence (P50613 whole entry): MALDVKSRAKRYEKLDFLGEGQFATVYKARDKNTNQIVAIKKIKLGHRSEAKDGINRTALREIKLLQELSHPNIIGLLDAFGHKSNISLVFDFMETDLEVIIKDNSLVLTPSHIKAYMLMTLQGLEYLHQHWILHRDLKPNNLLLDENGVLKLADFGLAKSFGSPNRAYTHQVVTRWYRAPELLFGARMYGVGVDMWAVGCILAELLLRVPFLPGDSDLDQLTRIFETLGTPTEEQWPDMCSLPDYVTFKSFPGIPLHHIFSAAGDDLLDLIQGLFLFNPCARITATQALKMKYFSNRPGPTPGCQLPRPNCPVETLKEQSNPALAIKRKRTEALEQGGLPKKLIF
Sequence (P51946 whole entry partner): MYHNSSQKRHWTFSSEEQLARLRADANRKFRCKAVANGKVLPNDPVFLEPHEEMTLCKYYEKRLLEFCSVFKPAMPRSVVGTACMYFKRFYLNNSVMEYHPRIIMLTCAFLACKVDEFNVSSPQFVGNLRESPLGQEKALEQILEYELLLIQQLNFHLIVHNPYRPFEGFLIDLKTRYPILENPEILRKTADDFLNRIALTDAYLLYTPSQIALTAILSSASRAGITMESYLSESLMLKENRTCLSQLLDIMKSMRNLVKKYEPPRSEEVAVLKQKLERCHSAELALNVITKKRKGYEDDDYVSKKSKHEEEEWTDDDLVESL
Sequence (P51948 whole entry partner): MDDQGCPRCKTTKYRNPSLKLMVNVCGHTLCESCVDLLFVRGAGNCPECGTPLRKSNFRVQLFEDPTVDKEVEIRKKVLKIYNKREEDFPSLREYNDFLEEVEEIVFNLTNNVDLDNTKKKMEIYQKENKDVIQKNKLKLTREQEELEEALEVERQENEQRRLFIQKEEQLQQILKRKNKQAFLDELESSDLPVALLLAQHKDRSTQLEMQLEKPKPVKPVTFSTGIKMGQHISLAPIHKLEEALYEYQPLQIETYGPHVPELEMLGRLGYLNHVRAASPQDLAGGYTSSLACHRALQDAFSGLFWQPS
Experiment: In vitro CDK7 assay, potency of irreversible covalent inhibitors (kinact/KI)
Settings: read-out: CDK7 (20 nM enz.) (kinact, s^−1), 20 nM enz.
Number in s⁻¹, nothing else.

Please review the entries below; each comes with its answer.
compound: [2H]C1(N2CCC(c3cc(C)c4c(c3)Nc3ncnc(N5CCS(=O)(=O)CC5)c3[C@@H](C)O4)CC2)CN(C(=O)C#CC)C1
system.under.test: CDK7/cyclinH/MAT1 trimeric complex (Homo sapiens (Human))
units.symbol: s⁻¹
kinact: 9.88e-05
//
compound: C=CC(=O)N1CC[C@H](N2CCC(c3cc(C)c4c(c3)Nc3ncnc(N5CCS(=O)(=O)CC5)c3CO4)CC2)C1 (single isomer, unassigned)
system.under.test: CDK7/cyclinH/MAT1 trimeric complex (Homo sapiens (Human))
units.symbol: s⁻¹
kinact: 7.64e-05
//
compound: C=CC(=O)N1CC[C@H](N2CC(c3cc4c(c(C5CC5)c3)O[C@H](C)c3c(ncnc3N3CCS(=O)(=O)CC3)N4)C2)C1 (single isomer, unassigned)
system.under.test: CDK7/cyclinH/MAT1 trimeric complex (Homo sapiens (Human))
units.symbol: s⁻¹
kinact: 2.35e-05
//
compound: C#Cc1cc(C2CCN(C3CN(C(=O)C#CC)C3)CC2)cc2c1O[C@H](C)c1c(ncnc1N1CCS(=O)(=O)CC1)N2
system.under.test: CDK7/cyclinH/MAT1 trimeric complex (Homo sapiens (Human))
units.symbol: s⁻¹
kinact: 8.38e-05
//
compound: C=CC(=O)N1CC(N2CCC(c3cc(C)c4c(c3)Nc3ncnc(N5CCS(=O)(=O)CC5)c3[C@H](C)O4)CC2)C1
system.under.test: CDK7/cyclinH/MAT1 trimeric complex (Homo sapiens (Human))
units.symbol: s⁻¹
kinact: 4.14e-05
//
compound: C=CC(=O)N1CCN(C2CCN(c3cc(C)c4c(c3)Nc3ncnc(N5CCS(=O)(=O)CC5)c3CO4)CC2)CC1
system.under.test: CDK7/cyclinH/MAT1 trimeric complex (Homo sapiens (Human))
units.symbol: s⁻¹
kinact: 5.75e-05

Ask: Recorded kinact of `C=CC(=O)N1CC[C@@H](N2CC(c3cc(C)c4c(c3)Nc3ncnc(N5CCOCC5)c3CO4)C2)C1` , please.
Reply: 6.7e-05

Ask: Entry under review: C=CC(=O)N1CCC(N2CCC(c3cc(C)c4c(c3)Nc3ncnc(N5CCOCC5)c3CO4)CC2)C1 (stereo not shown) . Reported kinact?
Reply: 3.59e-05

Ask: For the compound shown here, `C=CC(=O)N1CC(N2CCC(c3cc(Cl)c4c(c3)Nc3ncnc(N5CCOCC5)c3CO4)CC2)C1` , give the reported kinact.
Reply: 4.14e-05

Ask: Given `C=CC(=O)N1CC(N2CCC(c3ccc4c(c3)Nc3ncnc(C5=CCOCC5)c3CO4)CC2)C1` , state its recorded kinact.
Reply: 5.09e-05

Ask: So what's the measured kinact for this one? `CC#CC(=O)N1CC(C)(N2CCC(c3cc(C)c4c(c3)Nc3ncnc(N5CCS(=O)(=O)CC5)c3[C@@H](C)O4)CC2)C1`
Reply: 4.73e-05

Ask: Item under review: `C=CC(=O)N1CC(N2CCC(c3cc(C)c4c(c3)Nc3ncnc(-c5ccnn5C)c3CO4)CC2)C1` . Reported kinact?
Reply: 4.18e-05

Ask: Need kinact, item `CC#CC(=O)N1CCN(C2CCN(c3cc(C)c4c(c3)Nc3ncnc(N5CCS(=O)(=O)CC5)c3CO4)CC2)CC1`
Reply: 9.43e-05
